test: physchem; format: physicochemical
metric: pKa
Number only, please.

Ask: Specify reported pKa for the molecule shown: NC(=S)C(N)=S [DTO, dithiooxamide]
Reply: 11

###

assay: physchem; type: physicochemical; conditions: pH 12, aqueous buffer, thermodynamic from solid
metric: solubility

Ask: Specify reported solubility for the compound shown: NC(=S)C(N)=S [DTO, dithiooxamide]
Reply: ~900 µg/mL
